B1: tRNA (parent)
chain: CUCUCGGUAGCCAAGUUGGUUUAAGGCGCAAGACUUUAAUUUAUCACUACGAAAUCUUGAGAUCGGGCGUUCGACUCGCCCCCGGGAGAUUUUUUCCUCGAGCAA

- Variants of: B1
- test-protocol: nonsense suppression (GFP-seq) (ratio to wild type); higher = more function; SUP4oc tRNA, yeast GFP reporter sort-seq
This sample holds only a part of the variants without activity.
The reader will find reported nonsense suppression values listed item by item below.
parameter-measured: nonsense suppression

[
  {
    "chain": "CUCUCGGUACCCAAGUUGGUUUAAGGCGGAAGACUUUAAUUUAUCACUACGAAAUCUUGAGAUCGGGCGUUCGACUCGUCCCCGGGAGAUUUUUUCCUCGAGCAA [G10C C29G C79U]",
    "readout-value": "≤ 0.026"
  },
  {
    "chain": "CUCUCGGUAGCCACGUUGGUUUAAGGCGCAAGACUUUAAUUUAUCACUACGAAAUCUUGAGAUCGGGUGUUCGACUCGCCCCCGGGAAAUUUUUUCCUCGAGCAA [A14C C68U G88A]",
    "readout-value": "≤ 0.026"
  },
  {
    "chain": "CUCUCGGUAGCUAAGUUGGUUUAAGGCGCAGGACUUUAAUUUAUCACUACGAAAUCUUGAGAUCAGGCGUUCGACUCGCCCCCGGGAGAUUUUUUCCUCGAGCAA [C12U A31G G65A]",
    "readout-value": "≤ 0.026"
  },
  {
    "chain": "CUCUCAGUAGCCAAGUUGGUUUAAGGCGCACGACUUUAAUUUAUCACUACGAAAUCUUGCGAUCGGGCGUUAGACUCGCCCCCGGAAGAUUUUUUCCUCGAGCAA [G6A A31C A60C C72A G86A]",
    "readout-value": "≤ 0.026"
  },
  {
    "chain": "UUCUCGGUAGCCAAGUUGGUUUAAGGCGCAAGACUUUAAUUUAUCACUACGAAAUCUUGAGACCGGGCGUUCGACUCGCCCCCGGGAGAUUUUUUCCUCGAGCAA [C1U U63C]",
    "readout-value": "≤ 0.026"
  },
  {
    "chain": "CCCUCGGUAGCCAAGUUGGUCUAAGGCGCAAGACUUUAAUUUAUCACUACGAAAUCGUGAGAUCGGGCGUUCGACUCGCCCCCGGGAGAUUUUUUCCUCGAGCAA [U2C U21C U57G]",
    "readout-value": "≤ 0.026"
  },
  {
    "chain": "CUCUCGGUAGCCAAGUUGGUUUAAGGCGCACGACUUUAAUUUAUCACUACGAAAUCUUGAGAUCGGGCGUUGGACUCUCCCCCGGGAGAUUUUUUCCUCGAGCAA [A31C C72G G78U]",
    "readout-value": "≤ 0.026"
  },
  {
    "chain": "CUCUCGGUAGGCAAGUUGGUUUAAGGCGCAAGACCUUAAUUUAUCACUACGAAAUCUUGAGAUCGGGCGUUCGUCUCGCCCACGGGAGAUUUUUUCCUCGAGCAA [C11G U35C A74U C82A]",
    "readout-value": "≤ 0.026"
  },
  {
    "chain": "CUCUCGGUAGCCAAGUUGGUUUAAGGCGCAAGAUUUUAAUUUAUCACUACGAAAUCUUGCGAUCGGGCGUUAGACUCGCCCCCGGGAGAUUUUUUCCUCGAGCAA [C34U A60C C72A]",
    "readout-value": "≤ 0.026"
  },
  {
    "chain": "CUCUCGGUAGCCAAGUUGGUUUAAGGCGCAAGACUUUAAUUUAUCACUACGAAAUCUUGAGAUCUGGCGUUCGACUCGCCCCCUGGAGAUUUUUUCCUCGAGCAA [G65U G84U]",
    "readout-value": "≤ 0.026"
  },
  {
    "chain": "CUCUCGGUAGCCAAGUCGGUUUAAGGCUCCAGACUUUAAUUUAUCACUACGAAAUCUUGAGAUCGGGCGUUCGACUCGCCCCCGGGAGAUUUUUUCCUCGAGCAA [U17C G28U A30C]",
    "readout-value": "≤ 0.026"
  },
  {
    "chain": "CUCUCGGUAGCCAAGUUGGUUUAAAGCGCAAGACUUUAAUUUAUCACUACGAAAUCUUCAGACCGGGCGUUCGACUCGCCCCCGGGAGAUUUUUUCCUCGAGCAA [G25A G59C U63C]",
    "readout-value": "≤ 0.026"
  },
  {
    "chain": "CUCCCGGUAGCCAAGUUGGUUUAAGGCGCAAGACAUUAAUUUAUCACUACGAAAUCUUGAGAUCGGGCGUUCGACUCGCCCCAGGGAGAUUUUUUCCUCGAGCAA [U4C U35A C83A]",
    "readout-value": "≤ 0.026"
  },
  {
    "chain": "CUCUCGGUAGCCAAGUUGGUUUCAGGCGCAAGACUUUAAUUUAUCACUACGAAAUCUUGAGAUCGGGCGUUCGACUCGCCCGCGGGAGAUUUUUUCCUCGAGCAA [A23C C82G]",
    "readout-value": "≤ 0.026"
  },
  {
    "chain": "CUCGCGGUAGCCAAGUUGGCUUAAGGCGCAAGGCUUUAAUUUAUCACUACGAAAUCUUGAGAUCGGGCGUUCGACUCGCCCCCGGGAGAUUUUUUCCUCGAGCAA [U4G U20C A33G]",
    "readout-value": 0.0309
  },
  {
    "chain": "CUCUCGGUGGCCAAGUUGGUUUAAGGCGCAGGACUUUAAUUUAUCACUACGAAAUCUUGAGAUCGGGCGUUCGACUCGCCCCCGGGAGAUUUUUUCCUCGAGCAA [A9G A31G]",
    "readout-value": 0.259
  },
  {
    "chain": "CUCCCGGUAGCCAAGUUGGUUUAAGGCGCAAGACUUUAAUUUAUCACUACGAAAUCUUGAGAUCGGGCGUUCGACUCGCCCCCGGGAGAUUUUUUCCUCGAGCAA [U4C]",
    "readout-value": 0.585
  },
  {
    "chain": "CUCUUGGUAGCCAAGUUGGUUUAAGGCGCAAGACUUUAAUUUAUCACUACGAAAGCUUGAGAUCGGGAGUUCGUCUCGCCCCCGGGAGAUUUUUUCCUCGAGCAA [C5U U55G C68A A74U]",
    "readout-value": "≤ 0.026"
  },
  {
    "chain": "GUCUCGGUAGCCAAGUUGGUUUAAGGCGCAAGACUUUAAUUUAUCACUACGAAAUCUUGAGAUCGGGCGUUCGACUCGCCCCCGGGGGAUUUUUUCCUCGAGCAA [C1G A87G]",
    "readout-value": "≤ 0.026"
  },
  {
    "chain": "CUCUCGGUAGCCAAGUUGGUUUAAGGCACAAGACUUUAAUUUAUCACUACGAAAUCUUGAGAUCGGGUGUUCGACUCGCCCCCGGGAGAUUUUUUCCUCGAGCAA [G28A C68U]",
    "readout-value": 1.17
  },
  {
    "chain": "CUCUCGGUAGCCAAGUUGGUUGAAGGCGCAAGACUUUAAUUUAUCACUACGAAAUCUUGAGAUCGGGCGUUCGACUCGCCCCCGGGAGAUUUUUUCCUCGAGCAA [U22G]",
    "readout-value": 0.989
  },
  {
    "chain": "CUCUCGGUAGCCAAUAUGGUUUAAGGCGCAAGACUUUAAUUUAUCACUACGAAAUCUUCAGAUCGCGCGAUCGACUCGCCCGCGGGAGAUUUUUUCCUCGAGCAA [G15U U16A G59C G66C U70A C82G]",
    "readout-value": "≤ 0.026"
  },
  {
    "chain": "CUCUCGGUAGCCAAGUUGGUUUAAGGCGCAAGACUUUAAUUUAUCACUACGAAAACUUGAGAUCGGGCGUUCGACUCGCCCCCGCGAGAUUUUUUCCUCGAGCAA [U55A G85C]",
    "readout-value": "≤ 0.026"
  },
  {
    "chain": "CUCUCGGUAGCCAAGUUGGUUUAAGGCGCAAGACUUUAAUUUAUCACUACGAAAUCUUGACAUCGGGCGUUCGAGUCGCCCCCGGGAGAUUUUUUCCUCGAGCAA [G61C C75G]",
    "readout-value": 1.21
  },
  {
    "chain": "CUCUCGGUAGCCAAGUUGGUUGAAGGCGCAAGAAUUUAAUUUAUCACUACGAAAUCUUGAGAUCGGGCGUUCGACUCGCCCCCGAGAGAUUUUUUCCUCGAGCAA [U22G C34A G85A]",
    "readout-value": "≤ 0.026"
  },
  {
    "chain": "CUCUCGGUAGCCAAGUUGGUUUAAGGCGCAAGACUUUAAUUUAUCACUACGAAAUCUUGACAUCGGGCGUUCGACUCGCCCCCGGGGGAUUUUUUCCUCGAGCAA [G61C A87G]",
    "readout-value": 0.247
  },
  {
    "chain": "CUCUCGGUAGCCAAGUUGGUUCAACGCGCAAGACUUUAAUUUAUCACUACGAAAUCUUGAGAUCGGGCGUUCGACUCGCCCCCGGGAGAUUUUUUCCUCGAGCAA [U22C G25C]",
    "readout-value": 0.0473
  },
  {
    "chain": "CUCUCGGUAGCCAAGUUGGUUUAAGGCGCAAGGCUUUAAUUUAUCACUACGAAAUCUUGAGAUCGGGCGUUCGACUCGCCCCCGCGAGAUUUUUUCCUCGAGCAA [A33G G85C]",
    "readout-value": 0.0351
  },
  {
    "chain": "CUCUCGGUAGCCAAGUUGGUUUAAGGCGCGAGACUUUAAUUUAUCACUACGAAAUCUUGAGAUCGGGCGUUCGACUCGCCCCCGCGAGAUUUUUUCCUCGAGCAA [A30G G85C]",
    "readout-value": "≤ 0.026"
  },
  {
    "chain": "GUCUCGGUAGCCAUGUUGGUUUAAGGCGCAAGACUUUAAUUUAUCACUACGAAAUCUUGAGAUCGGGCGUUCGACUUGCCCCCGGGAGAUUUUUUCCUCGAGCAA [C1G A14U C77U]",
    "readout-value": "≤ 0.026"
  },
  {
    "chain": "CUCUCGGUAGCCGAGUUGGUUUAAGGCGCAAGACUUUAAUUUAUCACUACGAAAUCUUGAGAUGGGGCGUUCGACUCGCCCCCGGGAGAUUUUUUCCUCGAGCAA [A13G C64G]",
    "readout-value": "≤ 0.026"
  },
  {
    "chain": "CUCUCGGUAGCCAAGUUGGUUUAAGGCGCAAGACUUUAAUUUAUCACUACGAAAUCUUGAGAUCGUGCGUUCGACUCGACCCCGGGAGAUUUUUUCCUCGAGCAA [G66U C79A]",
    "readout-value": "≤ 0.026"
  },
  {
    "chain": "CUCUCGGUAGCUAAGUUGGUUUAAGGCGCAAGACUUUAAUUUAUCACUACGAAAUUUUGAGAUCGGGCGUUCGACUCGCCCCCGGGAGAUUUUUUCCUCGAGCAA [C12U C56U]",
    "readout-value": "≤ 0.026"
  },
  {
    "chain": "CUCUCGGUUGCCAAGUUGGUUUAAGGCGCAAGACUUUAAUUUAUCACUACGAAAUCUUGAGACCGGGCGUUCGACUCGCCCCCGGGAGAUUUUUUCCUCGAGCAA [A9U U63C]",
    "readout-value": 0.0507
  },
  {
    "chain": "CUCUCAGUAGCCAAGUUGGUUUAAGGCGGAAGACUUUAAUUUAUCACUACGAAAUCUUGAGCUCGGGCGUUCGAGUCGCCCCCGGGAGAUUUUUUCCUCGAGCAA [G6A C29G A62C C75G]",
    "readout-value": "≤ 0.026"
  },
  {
    "chain": "CUCUCGGUAGCCAAGUUGGAUUAAGGCGCAAGACUUUAAUUUAUCACUACGAAAUCUUGAGAUCGGGCGUUCGACUCGCCCCCGGGGGAUUUUUUCCUCGAGCAA [U20A A87G]",
    "readout-value": 0.226
  },
  {
    "chain": "CUCUCGGUAGCCAAGUUGGUUUAAGGCGCAAGACUUUAAUUUAUCACUACGAAAUCUGGAGAUCGUGCGUUCGAAUCGCCCCCGGGAGAUUUUUUCCUCGAGCAA [U58G G66U C75A]",
    "readout-value": "≤ 0.026"
  },
  {
    "chain": "CUCUCGGUAGCCAAGUUGGUUUAAGGGGCAAGACUUUAAUUUAUCACUACGAAAUCUUGAGAUCGGGGGUUCGACUCGCCCCCAGGAGAUUUUUUCCUCGAGCAA [C27G C68G G84A]",
    "readout-value": "≤ 0.026"
  },
  {
    "chain": "CUCUCGGAAGCCAAGUUGGUUUAACGCGCAAGACUUUAAUUUAUCACUACGAAAUCUUGAGAUCGGGCGUUCGACUCGCCCCCGGGAGAUUUUUUCCUCGAGCAA [U8A G25C]",
    "readout-value": "≤ 0.026"
  },
  {
    "chain": "CUCUCGGUAGCCAAGUUGGUUUAUGGCGCAAGACUUUAAUUUAUCACUACGAAAUCUUGAGAUCGGGCGUUCGACUCGCCCCCGGGAGAUUUUUUCCUCGAGCAA [A24U]",
    "readout-value": 0.487
  },
  {
    "chain": "CGCUCGGUAGUCAAGUUGGUUUAAGGCGCAAGACUUUAAUUUAUCACUACGAAAGCUUGUGAUCGGGCGUUCGACUCGCCCGCGGCAUAUUUUUUCCUCGAGCAA [U2G C11U U55G A60U C82G G86C G88U]",
    "readout-value": "≤ 0.026"
  },
  {
    "chain": "CUCUCGGUAGCCAAGUUGGUUUAAGGCGUAAGACUUUAAUUUAUCACUACGAAAUCUUGAGAUCGGGCGUUCGACUCGCCCUCGGGAGAUUUUUUCCUCGAGCAA [C29U C82U]",
    "readout-value": 0.224
  },
  {
    "chain": "CUCUCGGUAGCCAAGUUGGCUUAAGGCGCAAGACUUUAAUUUAUCACUACGAAAUCUUGAAAUCGGGCGUUCGACUCGCCCCCGGGAGAUUUUUUCCUCGAGCAA [U20C G61A]",
    "readout-value": 0.212
  }
]
